B1: FCHO1 (parent)
chain: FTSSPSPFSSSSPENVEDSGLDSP

Variants of: B1
Assay: protein stability index of a GFP-peptide fusion (GPS, HEK-293T) (PSI 1-6); higher = more stable;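 also: lentivirally expressed fusions sorted by FACS into six bins by GFP to DsRed ratio, PSI derived from sequencing read proportions per bin multiplied by bin number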
Details: c terminus: a fixed tail appended
Is protein stability index at least 2? Then Y. If not, N.

Worked cases, answers included:
# mutation label, label class
measured = [
    ("V16K", "N"),
    ("S11E", "Y"),
    ("T2P", "Y"),
]

State whether the measured protein stability index reaches 2, counting equality as reaching it, for P13T
N

State whether the measured protein stability index reaches 2, counting equality as reaching it, for F1M
Y

State whether the measured protein stability index reaches 2, counting equality as reaching it, for N15M
Y

State whether the measured protein stability index reaches 2, counting equality as reaching it, for S10K
N

State whether the measured protein stability index reaches 2, counting equality as reaching it, for S11D
Y

State whether the measured protein stability index reaches 2, counting equality as reaching it, for P13S
Y

State whether the measured protein stability index reaches 2, counting equality as reaching it, for V16R
Y

State whether the measured protein stability index reaches 2, counting equality as reaching it, for N15S
Y

State whether the measured protein stability index reaches 2, counting equality as reaching it, for S19I
Y
